system: M. kansasii My 235/80; assay: In vitro antimycobacterial evaluation (MIC, Sula semisynthetic medium); format: cell-based; settings: Mycobacterium kansasii, MY235/80, 336 h; 14d incubation; read-out: MIC MK
Kindly state MIC for each of the entries shown.
Just the number in µM, nothing appended.

Q: Entry C(/C=C/c1nc2ccccc2o1)=C\c1ccccc1 [Compound 11] needs its MIC filled in; supply it.
Result: 500

Q: Query MIC for Cc1ccc(/C=C/c2nc3ccccc3o2)cc1 [Compound 5]
Result: 250

Q: Kindly indicate its recorded MIC. Item: COc1ccccc1/C=C/c1nc2ccccc2o1 [Compound 2]
Result: 125

Q: Please report the measured MIC for C(=C\c1nc2ccccc2o1)/c1ccco1 [Compound 9]
Result: 125

Q: Using known records, supply MIC for C(=C\c1nc2ccccc2o1)/c1ccc2c(c1)CCO2 [Compound 8]
Result: 62.5

Q: Please look at this compound and report its MIC: COc1ccc(/C=C/c2nc3ccccc3o2)cc1 [Compound 3]
Result: 62.5

Q: Specify reported MIC for the compound shown: COc1ccc(/C=C/C=C/c2nc3ccccc3o2)cc1 [Compound 12]
Result: 125

Q: Identify the reported MIC for the following entry. C(=C\c1nc2ccccc2o1)/c1ccccc1 [Compound 1, 2-[(E)-2-Phenylethenyl]-1,3-benzoxazole]
Result: 125

Q: Check the records and state MIC for CSc1ccc(/C=C/c2nc3ccccc3o2)cc1 [Compound 4]
Result: 62.5

###

Provide the recorded MIC for the entries that follow.
system: M. kansasii My 235/80; assay: In vitro antimycobacterial evaluation (MIC, Sula semisynthetic medium); type: cell-based; details: Mycobacterium kansasii, MY235/80, 336 h; 14d incubation; read-out: MIC MK
Your answer is read as µM, so omit the unit and give the number.

Q: Give me measured MIC, please, for this molecule: FC(F)(F)c1ccc(/C=C/c2nc3ccccc3o2)cc1 [Compound 7]
Result: 250

Q: Indicate its recorded MIC; the molecule in question is CCc1ccc(/C=C/c2nc3ccccc3o2)o1 [Compound 10]
Result: 62.5

Q: Report MIC for Clc1ccc(/C=C/c2nc3ccccc3o2)cc1 [Compound 6]
Result: 500

###

tested on: Mycobacterium tuberculosis My 331/88; experiment: In vitro antimycobacterial evaluation (MIC, Sula semisynthetic medium); type: cell-based; conditions: MY331/88, 336 h, 14d incubation
Please respond with reported MIC for every item in the list.
Write the value in µM as a bare number.

Q: Give MIC for C(=C\c1nc2ccccc2o1)/c1ccc2c(c1)CCO2 tested on Mycobacterium tuberculosis My 331/88.
Result: 62.5

Q: Report measured MIC on Mycobacterium tuberculosis My 331/88; entry: CCc1ccc(/C=C/c2nc3ccccc3o2)o1
Result: 250

Q: Please report the measured MIC for COc1ccccc1/C=C/c1nc2ccccc2o1 tested on Mycobacterium tuberculosis My 331/88.
Result: 125
